TARGET_DESC: Sushi domains (SD1/2) protein of the GABAB1a (GB1a) subunit, recombinant
Sequence (Q9Z0U4 29-158): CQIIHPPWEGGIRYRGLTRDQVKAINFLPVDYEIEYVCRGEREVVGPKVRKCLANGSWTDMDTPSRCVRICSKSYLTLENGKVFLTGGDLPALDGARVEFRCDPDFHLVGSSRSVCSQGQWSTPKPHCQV
PROCEDURE_SUMMARY: FP competition
Non-standard residues stand in square brackets, D forms with d. NMeS = CN[C@@H](CO)C(=O)O
Listing of entries alongside the reported Ki.
EXPERIMENTAL_ENDPOINT: Ki (nM)

1. Ac-PWAIVWGPTV[NMeS]RED-NH2 (SMILES CC[C@H](C)[C@H](NC(=O)[C@H](C)NC(=O)[C@H](Cc1c[nH]c2ccccc12)NC(=O)[C@@H]1CCCN1C(C)=O)C(=O)N[C@H](C(=O)N[C@@H](Cc1c[nH]c2ccccc12)C(=O)NCC(=O)N1CCC[C@H]1C(=O)N[C@H](C(=O)N[C@H](C(=O)N(C)[C@@H](CO)C(=O)N[C@@H](CCCNC(=N)N)C(=O)N[C@@H](CCC(=O)O)C(=O)N[C@@H](CC(=O)O)C(N)=O)C(C)C)[C@@H](C)O)C(C)C) […(N-Me-S)RED] ... 1040
2. Ac-EEDDSDVWWGG-NH2 ... 1750
3. Ac-AWAIVWGPTVSRED-NH2 ... 552
